TESTED ON: human TLR9 (Homo sapiens, UniProt Q9NR96)
Sequence (Q9NR96 26-1032): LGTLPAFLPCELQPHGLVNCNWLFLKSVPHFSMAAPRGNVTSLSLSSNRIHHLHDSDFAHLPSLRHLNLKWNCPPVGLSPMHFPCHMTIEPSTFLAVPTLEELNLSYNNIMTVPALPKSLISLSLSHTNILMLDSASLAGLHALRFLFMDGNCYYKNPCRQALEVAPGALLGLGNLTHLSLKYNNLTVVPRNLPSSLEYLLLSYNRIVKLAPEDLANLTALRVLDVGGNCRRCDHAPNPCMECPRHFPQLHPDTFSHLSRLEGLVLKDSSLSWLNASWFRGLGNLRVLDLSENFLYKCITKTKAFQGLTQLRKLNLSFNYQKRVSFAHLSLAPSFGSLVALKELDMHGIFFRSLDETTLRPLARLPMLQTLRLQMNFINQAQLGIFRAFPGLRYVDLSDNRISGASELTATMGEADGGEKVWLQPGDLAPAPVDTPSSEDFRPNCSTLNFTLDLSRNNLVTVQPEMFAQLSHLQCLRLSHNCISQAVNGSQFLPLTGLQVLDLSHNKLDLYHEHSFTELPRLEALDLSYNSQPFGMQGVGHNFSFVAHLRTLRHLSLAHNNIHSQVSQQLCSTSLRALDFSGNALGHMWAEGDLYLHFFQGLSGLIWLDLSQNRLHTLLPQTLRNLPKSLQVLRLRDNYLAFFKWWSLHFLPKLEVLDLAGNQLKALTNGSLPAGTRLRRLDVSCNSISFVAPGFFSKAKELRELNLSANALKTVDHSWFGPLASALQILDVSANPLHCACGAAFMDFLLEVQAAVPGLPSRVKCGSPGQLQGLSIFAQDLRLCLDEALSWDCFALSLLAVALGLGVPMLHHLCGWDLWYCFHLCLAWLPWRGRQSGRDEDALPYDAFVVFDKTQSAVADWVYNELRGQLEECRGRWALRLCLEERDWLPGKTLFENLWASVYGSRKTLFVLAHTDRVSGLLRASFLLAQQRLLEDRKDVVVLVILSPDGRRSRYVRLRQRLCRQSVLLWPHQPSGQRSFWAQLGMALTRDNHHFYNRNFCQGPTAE
EXPERIMENT DESCRIPTION: TLR9 inhibition reporter assay (HEK-Blue cells, SEAP reporter, ODN2006 stimulation)
EXPERIMENTAL PARAMETERS: HEK-Blue cells overexpressing human TLR9, SEAP reporter, ODN2006 5 nM
REPORTED PROPERTY: pIC50
// returns pIC50 (minus log10 of molar concentration), number only

COMPOUND | REPORTED PROPERTY | RESULT VALUE
Cc1cc(-c2[nH]nc(-c3ncc(C4CCN(C)CC4)cn3)c2C(C)C)cn2ncnc12 | pIC50 | 5.26
CCCN1CC(c2ccc(-c3n[nH]c(-c4cc(OC)c5ncnn5c4)c3C(C)C)cc2)C1 | pIC50 | 4.94

Entry Cc1cc(-c2[nH]nc(C(=O)NCC3CN(C(C)C)CCO3)c2C(C)C)cn2ncnc12 (centres unmarked) [Example 135] : pIC50 on human TLR9 (Homo sapiens, UniProt Q9NR96) = 4.65

Entry `Cc1cc(-c2[nH]nc(C(=O)NCCN3CCOCC3)c2C(C)C)cn2ncnc12` : pIC50 on human TLR9 (Homo sapiens, UniProt Q9NR96) = 4.73

Entry `Cc1cc(-c2[nH]nc(C(=O)N[C@H]3CC[C@@H](NCc4cncnc4)CC3)c2C(C)C)cn2ncnc12` : pIC50 on human TLR9 (Homo sapiens, UniProt Q9NR96) = 5.41

====

In this section, each of the molecules is paired with its reported pIC50.
TESTED ON: human TLR8 (Homo sapiens, UniProt Q9NR97)
Sequence (Q9NR97 27-1041): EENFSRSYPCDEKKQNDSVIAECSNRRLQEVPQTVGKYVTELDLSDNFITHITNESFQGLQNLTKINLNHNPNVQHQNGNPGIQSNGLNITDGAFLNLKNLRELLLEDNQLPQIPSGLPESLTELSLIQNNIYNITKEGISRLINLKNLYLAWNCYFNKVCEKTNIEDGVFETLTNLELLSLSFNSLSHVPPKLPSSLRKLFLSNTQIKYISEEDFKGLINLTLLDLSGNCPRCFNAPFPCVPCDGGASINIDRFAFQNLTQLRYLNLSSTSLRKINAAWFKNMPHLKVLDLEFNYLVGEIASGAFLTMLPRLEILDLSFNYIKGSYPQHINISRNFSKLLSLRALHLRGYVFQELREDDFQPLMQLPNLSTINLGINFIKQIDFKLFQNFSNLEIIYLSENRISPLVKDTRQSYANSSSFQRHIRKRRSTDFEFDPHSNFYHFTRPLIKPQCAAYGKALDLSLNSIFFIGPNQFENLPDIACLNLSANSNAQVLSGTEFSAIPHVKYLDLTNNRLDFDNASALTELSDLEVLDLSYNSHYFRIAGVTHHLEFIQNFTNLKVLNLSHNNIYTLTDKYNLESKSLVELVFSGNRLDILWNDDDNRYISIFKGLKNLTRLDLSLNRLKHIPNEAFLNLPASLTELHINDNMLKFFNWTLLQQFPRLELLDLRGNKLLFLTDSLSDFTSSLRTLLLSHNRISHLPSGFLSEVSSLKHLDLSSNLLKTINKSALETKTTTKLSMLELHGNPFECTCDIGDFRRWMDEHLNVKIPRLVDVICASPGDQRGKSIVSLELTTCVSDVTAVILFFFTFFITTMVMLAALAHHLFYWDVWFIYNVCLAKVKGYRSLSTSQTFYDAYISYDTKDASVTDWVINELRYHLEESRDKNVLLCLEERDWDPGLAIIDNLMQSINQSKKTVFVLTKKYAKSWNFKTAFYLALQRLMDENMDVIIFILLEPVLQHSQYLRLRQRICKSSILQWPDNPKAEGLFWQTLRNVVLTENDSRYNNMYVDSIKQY
EXPERIMENT DESCRIPTION: TLR8 inhibition reporter assay (HEK-Blue cells, SEAP reporter, R848 stimulation)
EXPERIMENTAL PARAMETERS: HEK-Blue cells overexpressing human TLR8, SEAP reporter, R848 15.9 μM
// returns pIC50 (minus log10 of molar concentration), number only

// known answers, use as guide
MOLECULE | RESULT VALUE
Cc1cc(-c2[nH]nc(-c3ccc(NC(C)C)nc3)c2C(C)C)cn2ncnc12 | 8.55
COc1cc(-c2[nH]nc(C(=O)NC3CCN(CC4CCOCC4)CC3)c2CC(F)(F)F)cn2ncnc12 | 8.68
COc1cc(-c2[nH]nc(-c3cnc(C4CCN(CC5CCC5)CC4)cn3)c2C(C)C)cn2ncnc12 | 7.74

Consider Cc1cc(-c2[nH]nc(C3CCC(N(C)C(=O)C4CN(C)C4)CC3)c2C(C)C)cn2ncnc12 (centres unmarked) [Example 300] . Its measured pIC50 is 8.49

====

TESTED ON: human TLR7 (Homo sapiens, UniProt Q9NYK1)
Sequence (Q9NYK1 27-1049): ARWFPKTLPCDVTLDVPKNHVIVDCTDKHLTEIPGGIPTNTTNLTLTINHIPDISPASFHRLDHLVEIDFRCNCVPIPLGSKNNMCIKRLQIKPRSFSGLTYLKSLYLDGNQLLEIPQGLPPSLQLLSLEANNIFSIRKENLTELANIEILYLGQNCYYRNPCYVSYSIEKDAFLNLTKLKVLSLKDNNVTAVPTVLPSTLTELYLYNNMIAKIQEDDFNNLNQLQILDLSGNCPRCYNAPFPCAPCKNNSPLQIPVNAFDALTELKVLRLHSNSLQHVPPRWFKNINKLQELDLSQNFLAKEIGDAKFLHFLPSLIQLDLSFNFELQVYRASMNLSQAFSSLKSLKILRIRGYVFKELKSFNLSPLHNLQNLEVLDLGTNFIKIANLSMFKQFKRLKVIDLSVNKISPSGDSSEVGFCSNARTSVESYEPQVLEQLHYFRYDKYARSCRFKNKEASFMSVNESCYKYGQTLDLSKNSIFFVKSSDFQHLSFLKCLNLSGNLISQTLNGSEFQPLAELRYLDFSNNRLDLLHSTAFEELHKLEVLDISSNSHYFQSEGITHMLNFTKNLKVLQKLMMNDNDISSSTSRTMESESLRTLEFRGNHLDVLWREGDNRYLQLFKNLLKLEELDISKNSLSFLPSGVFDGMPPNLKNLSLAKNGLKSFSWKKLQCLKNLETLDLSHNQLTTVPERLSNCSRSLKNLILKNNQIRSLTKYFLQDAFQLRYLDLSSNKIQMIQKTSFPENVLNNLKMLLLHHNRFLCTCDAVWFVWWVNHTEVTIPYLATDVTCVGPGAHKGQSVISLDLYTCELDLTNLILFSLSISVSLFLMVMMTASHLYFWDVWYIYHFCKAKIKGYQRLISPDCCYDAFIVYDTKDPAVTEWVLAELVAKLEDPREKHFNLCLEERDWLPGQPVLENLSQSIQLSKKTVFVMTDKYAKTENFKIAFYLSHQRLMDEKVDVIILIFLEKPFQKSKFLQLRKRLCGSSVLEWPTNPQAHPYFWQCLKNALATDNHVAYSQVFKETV
EXPERIMENT DESCRIPTION: TLR7 inhibition reporter assay (HEK-Blue cells, SEAP reporter, gardiquimod stimulation)
EXPERIMENTAL PARAMETERS: HEK-Blue cells overexpressing human TLR7, SEAP reporter, gardiquimod 7.5 μM
REPORTED PROPERTY: log10(IC50) (log10 of the value in nM)
In plain terms, each number is the log10 of measured IC50 in nM.

COMPOUND | log10(IC50)
COCCN1CCC(c2cnc(-c3n[nH]c(-c4cc(OC)c5ncnn5c4)c3C(C)C)cn2)CC1 | 2.01
Cc1cc(-c2[nH]nc(C(=O)NCC3CN(CC4(C)COC4)CCO3)c2C(C)C)cn2ncnc12 (centres unmarked) | 0.53
COc1cc(-c2[nH]nc(-c3ccc(C4CCN(CC(F)(F)F)CC4)cc3)c2C(C)C)cn2ncnc12 | 0.64
COc1cc(-c2[nH]nc(-c3ccc(C4CCN(CC(N)=O)CC4)cc3)c2C(C)C)cn2ncnc12 | 1.20
COc1cc(-c2[nH]nc(-c3ccc4c(c3)CCNC4)c2C(C)C)cn2ncnc12 | 1.18
CNCCN1CCC(NC(=O)c2n[nH]c(-c3cc(C)c4ncnn4c3)c2C(C)C)CC1 | 0.38
Cc1cc(-c2[nH]nc(C(=O)NC3CN(C(C)C)C3)c2C(C)C)cn2ncnc12 | 1.62

For the next question, use this compound.
Consider `Cc1cc(-c2[nH]nc(C(=O)N[C@H]3CC[C@H](NCC4CCCC4)CC3)c2C(C)C)cn2ncnc12` . Its measured log10(IC50) is 0.83

====

TESTED ON: human TLR7 (Homo sapiens, UniProt Q9NYK1)
EXPERIMENT DESCRIPTION: TLR7 inhibition reporter assay (HEK-Blue cells, SEAP reporter, gardiquimod stimulation)
EXPERIMENTAL PARAMETERS: HEK-Blue cells overexpressing human TLR7, SEAP reporter, gardiquimod 7.5 μM
REPORTED PROPERTY: pIC50
// returns pIC50 (minus log10 of molar concentration), number only

COMPOUND | RESULT VALUE
Cc1cc(-c2[nH]nc(C(=O)N[C@H]3CC[C@H](NCC(C)(C)C)CC3)c2C(C)C)cn2ncnc12 | 8.65

Entry Cc1cc(-c2[nH]nc(C3CCC(NCC4(C)COC4)CC3)c2C(C)C)cn2ncnc12 (single isomer, unassigned) [Example 280] : pIC50 on human TLR7 (Homo sapiens, UniProt Q9NYK1) = 8.90

Entry `COc1c(C)c(-c2[nH]nc(-c3ccc(C4CCN(CC5CCOCC5)CC4)cn3)c2C(C)C)cn2ncnc12` : pIC50 on human TLR7 (Homo sapiens, UniProt Q9NYK1) = 7.65

Entry `Cc1cc(-c2[nH]nc(C(=O)N[C@H]3CC[C@H](NCC4(C)COC4)CC3)c2C(C)C)cn2ncnc12` : pIC50 on human TLR7 (Homo sapiens, UniProt Q9NYK1) = 6.97

Entry `Cc1cc(-c2[nH]nc(-c3ccc(N)nc3)c2C(C)C)cn2ncnc12` : pIC50 on human TLR7 (Homo sapiens, UniProt Q9NYK1) = 8.35

Entry Cc1cc(-c2[nH]nc(C(=O)N(C)C3CCN(C)C3)c2C(C)C)cn2ncnc12 (stereo not shown) : pIC50 on human TLR7 (Homo sapiens, UniProt Q9NYK1) = 7.59

Entry `COc1cc(-c2[nH]nc(-c3cnc(C4CCN(CC5CC5)CC4)cn3)c2C(C)C)cn2ncnc12` : pIC50 on human TLR7 (Homo sapiens, UniProt Q9NYK1) = 7.53

====

In this section, each of the molecules is paired with its reported pIC50.
TESTED ON: human TLR7 (Homo sapiens, UniProt Q9NYK1)
Sequence (Q9NYK1 27-1049): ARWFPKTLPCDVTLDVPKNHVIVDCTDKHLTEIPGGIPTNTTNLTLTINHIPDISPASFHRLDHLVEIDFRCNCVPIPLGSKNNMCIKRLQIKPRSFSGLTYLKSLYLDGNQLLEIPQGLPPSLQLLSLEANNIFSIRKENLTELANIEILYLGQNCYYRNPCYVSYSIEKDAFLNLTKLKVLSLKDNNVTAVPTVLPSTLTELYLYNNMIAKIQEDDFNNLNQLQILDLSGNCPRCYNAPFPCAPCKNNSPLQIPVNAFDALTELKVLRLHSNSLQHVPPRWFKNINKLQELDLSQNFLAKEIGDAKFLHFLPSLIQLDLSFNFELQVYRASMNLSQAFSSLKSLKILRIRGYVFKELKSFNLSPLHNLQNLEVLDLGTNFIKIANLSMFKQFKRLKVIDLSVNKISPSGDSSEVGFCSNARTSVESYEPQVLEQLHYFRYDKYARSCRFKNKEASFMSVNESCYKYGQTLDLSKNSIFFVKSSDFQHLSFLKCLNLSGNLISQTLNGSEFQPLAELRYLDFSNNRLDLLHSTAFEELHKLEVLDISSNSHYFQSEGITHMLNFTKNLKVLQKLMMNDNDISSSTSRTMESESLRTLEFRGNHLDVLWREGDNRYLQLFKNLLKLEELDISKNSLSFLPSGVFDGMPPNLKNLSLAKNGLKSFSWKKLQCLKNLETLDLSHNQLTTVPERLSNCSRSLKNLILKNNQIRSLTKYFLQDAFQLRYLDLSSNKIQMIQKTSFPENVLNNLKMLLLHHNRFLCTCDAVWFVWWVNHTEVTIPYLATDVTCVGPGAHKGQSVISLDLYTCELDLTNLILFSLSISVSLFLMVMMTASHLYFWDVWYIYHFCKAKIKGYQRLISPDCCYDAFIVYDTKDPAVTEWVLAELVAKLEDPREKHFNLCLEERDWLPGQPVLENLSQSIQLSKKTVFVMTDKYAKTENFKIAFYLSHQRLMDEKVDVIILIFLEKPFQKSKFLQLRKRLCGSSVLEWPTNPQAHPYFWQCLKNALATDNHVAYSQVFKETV
EXPERIMENT DESCRIPTION: TLR7 inhibition reporter assay (HEK-Blue cells, SEAP reporter, gardiquimod stimulation)
EXPERIMENTAL PARAMETERS: HEK-Blue cells overexpressing human TLR7, SEAP reporter, gardiquimod 7.5 μM
// returns pIC50 (minus log10 of molar concentration), number only

// known answers, use as guide
SMILES STRING | TESTED ON | pIC50
Cc1cc(-c2[nH]nc(-c3ccc4c(c3)CCN(CC(N)=O)C4)c2C(C)C)cn2ncnc12 | human TLR7 (Homo sapiens, UniProt Q9NYK1) | 6.86
CCN1CCc2nc(-c3n[nH]c(-c4cc(OC)c5ncnn5c4)c3C(C)C)sc2C1 | human TLR7 (Homo sapiens, UniProt Q9NYK1) | 8.07
COc1cc(-c2[nH]nc(-c3cnc(C4CCN(CC5CCC5)CC4)cn3)c2C(C)C)cn2ncnc12 | human TLR7 (Homo sapiens, UniProt Q9NYK1) | 7.24
COCCN1CCc2nc(-c3n[nH]c(-c4cc(C)c5ncnn5c4)c3C(C)C)sc2C1 | human TLR7 (Homo sapiens, UniProt Q9NYK1) | 6.92
COc1cc(-c2[nH]nc(-c3ccc(C4CCN(C5CCOCC5)CC4)cc3)c2C(C)C)cn2ncnc12 | human TLR7 (Homo sapiens, UniProt Q9NYK1) | 8.43

Consider `Cc1cc(-c2[nH]nc(C3CCN(C(=O)CN(C)C)CC3)c2C(C)C)cn2ncnc12` . Its measured pIC50 is 9.49

Consider `Cc1cc(-c2[nH]nc(-c3nc4c(s3)CN(C(=O)C[C@H](C)O)CC4)c2C(C)C)cn2ncnc12` . Its measured pIC50 is 8.37

Consider `Cc1cc(-c2[nH]nc(-c3ccc(C4CCN(C5COC5)CC4)cc3)c2C(C)C)cn2ncnc12` . Its measured pIC50 is 5.85
